- MEASUREMENT_PROTOCOL: Compound 1 pH-solubility at 22° C.
- Type: physicochemical
- RUN_PARAMETERS: TRIS buffer, aqueous buffer, thermodynamic from solid; pH 8 (TRIS 25 mM, l = 0.1), pH 8.0, 22° C.
READOUT_LABEL: solubility (µg/mL)
Entry rule: numbers only, all in µg/mL.

Asked: So what's the measured solubility for this one? CC(C)(C)OC(=O)N1CCN(Cc2ccn(Cc3ccc(Cl)cc3)c(=O)c2O)CC1 [Compound 1]
Given back: 0.69

---

- MEASUREMENT_PROTOCOL: Phase 1a multiple ascending dose study (oral solution): plasma pharmacokinetics
- Format: in vivo, human
- RUN_PARAMETERS: human, plasma, oral, 120 mg, Cohort 4, 120 mg once daily; Day 7; Hour 16; read-out: Compound 1 concentration, Conc (SD)
READOUT_LABEL: concentration at 16 h (ng/mL)
Entry rule: numbers only, all in ng/mL.

Asked: So what's the measured concentration at 16 h for this one? CC(C)(C)OC(=O)N1CCN(Cc2ccn(Cc3ccc(Cl)cc3)c(=O)c2O)CC1
Given back: 2.26

---

- MEASUREMENT_PROTOCOL: Phase 1a multiple ascending dose study (oral solution): plasma pharmacokinetics
- Format: in vivo, human
- RUN_PARAMETERS: human, plasma, oral, 60 mg, Cohort 5, 60 mg once daily; Day 7; Hour 8; read-out: Compound 1 concentration, Conc (SD)
READOUT_LABEL: concentration at 8 h (ng/mL)
Entry rule: numbers only, all in ng/mL.

Asked: So what's the measured concentration at 8 h for this one? CC(C)(C)OC(=O)N1CCN(Cc2ccn(Cc3ccc(Cl)cc3)c(=O)c2O)CC1 [Compound 1]
Given back: 2

---

- MEASUREMENT_PROTOCOL: Phase 1a multiple ascending dose study (oral solution): plasma pharmacokinetics
- Type: in vivo, human
- RUN_PARAMETERS: human, plasma, oral, 120 mg, Cohort 4, 120 mg once daily; Day 7; Hour 1; read-out: Compound 1 concentration, Conc (SD)
READOUT_LABEL: concentration at 1 h (ng/mL)
Entry rule: numbers only, all in ng/mL.

Asked: So what's the measured concentration at 1 h for this one? CC(C)(C)OC(=O)N1CCN(Cc2ccn(Cc3ccc(Cl)cc3)c(=O)c2O)CC1
Given back: 9.34

---

- MEASUREMENT_PROTOCOL: Phase 1a multiple ascending dose study (oral solution): plasma pharmacokinetics
- Assay type: in vivo, human
- RUN_PARAMETERS: human, plasma, oral, 120 mg, Cohort 2, 120 mg; Day 1; Hour 16; read-out: Compound 1 concentration, Conc (SD)
READOUT_LABEL: concentration at 16 h (µg/mL)
Entry rule: numbers only, all in µg/mL.

Asked: So what's the measured concentration at 16 h for this one? CC(C)(C)OC(=O)N1CCN(Cc2ccn(Cc3ccc(Cl)cc3)c(=O)c2O)CC1
Given back: 0

---

- MEASUREMENT_PROTOCOL: Phase 1a multiple ascending dose study (oral solution): plasma pharmacokinetics
- Format: in vivo, human
- RUN_PARAMETERS: human, plasma, oral, 240 mg, Cohort 3, 240 mg once daily; Day 7; Hour 2; read-out: Compound 1 concentration, Conc (SD)
READOUT_LABEL: concentration at 2 h (ng/mL)
Entry rule: numbers only, all in ng/mL.

Asked: So what's the measured concentration at 2 h for this one? CC(C)(C)OC(=O)N1CCN(Cc2ccn(Cc3ccc(Cl)cc3)c(=O)c2O)CC1 [Compound 1]
Given back: 10.3

---

- MEASUREMENT_PROTOCOL: Phase 1a multiple ascending dose study (oral solution): plasma pharmacokinetics
- Assay type: in vivo, human
- RUN_PARAMETERS: human, plasma, oral, 60 mg, Cohort 1, 60 mg once daily; Day 7; Hour 1; read-out: Compound 1 concentration, Conc (SD)
READOUT_LABEL: concentration at 1 h (ng/mL)
Entry rule: numbers only, all in ng/mL.

Asked: So what's the measured concentration at 1 h for this one? CC(C)(C)OC(=O)N1CCN(Cc2ccn(Cc3ccc(Cl)cc3)c(=O)c2O)CC1
Given back: 3.02

---

- MEASUREMENT_PROTOCOL: Phase 1a multiple ascending dose study (oral solution): plasma pharmacokinetics
- Assay type: in vivo, human
- RUN_PARAMETERS: human, plasma, oral, 240 mg, Cohort 3, 240 mg; Day 1; Hour 1; read-out: Compound 1 concentration, Conc (SD)
READOUT_LABEL: concentration at 1 h
Param answer (str): number followed by unit.

Asked: So what's the measured concentration at 1 h for this one? CC(C)(C)OC(=O)N1CCN(Cc2ccn(Cc3ccc(Cl)cc3)c(=O)c2O)CC1
Given back: 15 ng/mL

---

- MEASUREMENT_PROTOCOL: Phase 1a multiple ascending dose study (oral solution): plasma pharmacokinetics
- Type: in vivo, human
- RUN_PARAMETERS: human, plasma, oral, 120 mg, Cohort 4, 120 mg; Day 1; Hour 4; read-out: Compound 1 concentration, Conc (SD)
READOUT_LABEL: concentration at 4 h (ng/mL)
Entry rule: numbers only, all in ng/mL.

Asked: So what's the measured concentration at 4 h for this one? CC(C)(C)OC(=O)N1CCN(Cc2ccn(Cc3ccc(Cl)cc3)c(=O)c2O)CC1
Given back: 1.48

---

- MEASUREMENT_PROTOCOL: Compound 1 pH-solubility at 22° C.
- Type: physicochemical
- RUN_PARAMETERS: simulated gastric fluid, thermodynamic from solid; 0.1M HCl, pH 1.3, 22° C.
READOUT_LABEL: solubility
Param answer (str): number followed by unit.

Asked: So what's the measured solubility for this one? CC(C)(C)OC(=O)N1CCN(Cc2ccn(Cc3ccc(Cl)cc3)c(=O)c2O)CC1.Cl [Compound 1 HCl salt]
Given back: 1810 µg/mL

---

- MEASUREMENT_PROTOCOL: Phase 1a multiple ascending dose study (oral solution): plasma pharmacokinetics
- Format: in vivo, human
- RUN_PARAMETERS: human, plasma, oral, 60 mg, Cohort 5, 60 mg once daily; Day 7; Hour 6; read-out: Compound 1 concentration, Conc (SD)
READOUT_LABEL: concentration at 6 h
Param answer (str): number followed by unit.

Asked: So what's the measured concentration at 6 h for this one? CC(C)(C)OC(=O)N1CCN(Cc2ccn(Cc3ccc(Cl)cc3)c(=O)c2O)CC1
Given back: 2.15 ng/mL

---

- MEASUREMENT_PROTOCOL: Phase 1a multiple ascending dose study (oral solution): plasma pharmacokinetics
- Format: in vivo, human
- RUN_PARAMETERS: human, plasma, oral, 120 mg, Cohort 2, 120 mg once daily; Day 7; Hour 1; read-out: Compound 1 concentration, Conc (SD)
READOUT_LABEL: concentration at 1 h (ng/mL)
Entry rule: numbers only, all in ng/mL.

Asked: So what's the measured concentration at 1 h for this one? CC(C)(C)OC(=O)N1CCN(Cc2ccn(Cc3ccc(Cl)cc3)c(=O)c2O)CC1 [Compound 1]
Given back: 7.7

---

- MEASUREMENT_PROTOCOL: Phase 1a multiple ascending dose study (oral solution): plasma pharmacokinetics
- Type: in vivo, human
- RUN_PARAMETERS: human, plasma, oral, 120 mg, Cohort 2, 120 mg once daily; Day 7; Hour 24; read-out: Compound 1 concentration, Conc (SD)
READOUT_LABEL: concentration at 24 h
Param answer (str): number followed by unit.

Asked: So what's the measured concentration at 24 h for this one? CC(C)(C)OC(=O)N1CCN(Cc2ccn(Cc3ccc(Cl)cc3)c(=O)c2O)CC1
Given back: 0 ng/mL

---

- MEASUREMENT_PROTOCOL: Phase 1a single ascending dose study (oral solution): plasma pharmacokinetics
- Assay type: in vivo
- RUN_PARAMETERS: male, human, 120 mg, Cohort 3, 120 mg single oral dose (2.4 mg/mL, 50 mL)
READOUT_LABEL: Tmax (min)
Entry rule: numbers only, all in min.

Asked: So what's the measured Tmax for this one? CC(C)(C)OC(=O)N1CCN(Cc2ccn(Cc3ccc(Cl)cc3)c(=O)c2O)CC1
Given back: 30

---

- MEASUREMENT_PROTOCOL: Phase 1a multiple ascending dose study (oral solution): plasma pharmacokinetics
- Assay type: in vivo, human
- RUN_PARAMETERS: human, plasma, oral, 60 mg, Cohort 5, 60 mg; Day 1; Hour 6; read-out: Compound 1 concentration, Conc (SD)
READOUT_LABEL: concentration at 6 h (ng/mL)
Entry rule: numbers only, all in ng/mL.

Asked: So what's the measured concentration at 6 h for this one? CC(C)(C)OC(=O)N1CCN(Cc2ccn(Cc3ccc(Cl)cc3)c(=O)c2O)CC1 [Compound 1]
Given back: 0

---

- MEASUREMENT_PROTOCOL: pKa of Compound 1
- Assay type: physicochemical
- RUN_PARAMETERS: two basic groups
READOUT_LABEL: pKa

Asked: So what's the measured pKa for this one? CC(C)(C)OC(=O)N1CCN(Cc2ccn(Cc3ccc(Cl)cc3)c(=O)c2O)CC1
Given back: 6.5
